Listing of recorded melting point by entry.

Look over these answered cases.
* NC(=O)c1nn([C@H]2O[C@@H](CO)[C@H](O)[C@@H]2O)nc1C(N)=O | 210 to 212 °C
* Cc1cc(=O)[nH]c(=O)n1[C@H]1O[C@@H](CO)[C@H](O)[C@@H]1O | 175 to 177 °C
* NC(=O)c1ncn([C@H]2O[C@@H](CO)[C@H](O)[C@@H]2O)c1C(N)=O | 224 to 226 °C

For "NC(=O)c1cn([C@H]2O[C@@H](CO)[C@H](O)[C@@H]2O)ccc1=O" , write its melting point. 209 to 211 °C

For "NC(=O)c1nc([C@H]2O[C@@H](CO)[C@H](O)[C@@H]2O)n[nH]1" , write its melting point. 193 to 195 °C
